# Test system: MCF-7 cells
# assay-summary: Proliferation assay (Alamar blue, microtiter plate)
# Format: cell-based
# measurement-conditions: Homo sapiens, MCF7, 120 h; MCF-7, 5 day period, normoxic conditions; read-out: IC50, inhibition of proliferation
pIC50: −log10 of the molar value.
measured-parameter: pIC50

[[record]]
molecular_string = "O=CC[C@@H](O)[C@H](O)[C@H](O)CO"
number = 2.09


----------
# Test system: LNCaP cells
# assay-summary: Proliferation assay (Alamar blue, microtiter plate)
# Type: cell-based
# measurement-conditions: Homo sapiens, 120 h, 5 day period, normoxic conditions, read-out: IC50, inhibition of proliferation
measured-parameter: IC50 (mM)

[[record]]
compound = "O=CC[C@@H](O)[C@H](O)[C@H](O)CO [2DG, 2-deoxy-D-glucose]"
measured_parameter = "IC50"
number = 6.7

